experimentalTarget: Man(a1-2)Man(a1-6)[Man(a1-3)]Man(a1-6)[Man(a1-2)Man(a1-2)Man(a1-3)]Man(b1-4)GlcNAc(b1-4)GlcNAc
procedureDetails: glycan array binding signal (z-score within array); higher = stronger binding
experimentalSetup: glycan notation: IUPAC condensed, linker removed
Only a selection was taken, and the strongest signals are over-represented in it overall.
Hi, to clarify the labels: True covers glycan array binding signal (z-score) from -0.3 upward, False covers anything below -0.3.

Observe how each entry below is paired with its result.
binder: MFG-E8 (Homo sapiens), Q08431 (protein) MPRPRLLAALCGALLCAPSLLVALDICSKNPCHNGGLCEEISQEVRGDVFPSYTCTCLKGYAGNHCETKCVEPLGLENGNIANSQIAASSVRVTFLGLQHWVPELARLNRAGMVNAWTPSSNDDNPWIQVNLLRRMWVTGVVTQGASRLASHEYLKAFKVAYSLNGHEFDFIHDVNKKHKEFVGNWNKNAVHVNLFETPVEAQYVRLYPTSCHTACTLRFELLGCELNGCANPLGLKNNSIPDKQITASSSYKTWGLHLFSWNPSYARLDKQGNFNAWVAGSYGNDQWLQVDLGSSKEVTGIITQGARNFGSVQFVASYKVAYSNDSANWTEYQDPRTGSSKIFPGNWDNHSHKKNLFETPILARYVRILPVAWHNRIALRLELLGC
groupLabel: True

binder: NKp30 (Homo sapiens), O14931 (protein) MAWMLLLILIMVHPGSCALWVSQPPEIRTLEGSSAFLPCSFNASQGRLAIGSVTWFRDEVVPGKEVRNGTPERFGRLAPLASSRFLHDHQAELHIRDVRGHDASIYVCRVEVLGLGVGTGNGTRLVVRKEHPQLGAGTHADPEAPEAEGAPSVFLFPPKPKDTLMISRTPEVTCVVVDVSHEDPEVKFNWYVDGVEVHNAKTPREEQYNSTYRVVSVLTVLHQDWLNGKEYKCKVSNKALPAPIEKTISKAKGQPREPQVYTLPPSRDELTKNQVSLTCLVKGFYPSDIAVEWESNGQPENNYKTTPPVLDSDGSFFLYSKLTVDKSRWQQGNVFSCSVMHEALHNHYTQKSLSLSPGK
groupLabel: False

binder: Gal 9 (Homo sapiens), O00182 (protein) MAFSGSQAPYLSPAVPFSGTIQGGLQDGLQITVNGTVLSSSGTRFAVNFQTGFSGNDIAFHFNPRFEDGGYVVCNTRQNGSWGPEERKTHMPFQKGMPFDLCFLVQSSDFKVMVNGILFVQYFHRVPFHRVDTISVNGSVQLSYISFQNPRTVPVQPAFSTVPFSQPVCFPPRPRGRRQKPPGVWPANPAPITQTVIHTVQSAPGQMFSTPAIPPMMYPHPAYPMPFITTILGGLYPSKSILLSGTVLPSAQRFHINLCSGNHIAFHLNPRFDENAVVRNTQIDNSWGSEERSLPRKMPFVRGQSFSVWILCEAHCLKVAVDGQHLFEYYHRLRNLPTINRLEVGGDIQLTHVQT
groupLabel: False

binder: SP16665A-bot-344-23-344 (Bacteroides ovatus) (protein) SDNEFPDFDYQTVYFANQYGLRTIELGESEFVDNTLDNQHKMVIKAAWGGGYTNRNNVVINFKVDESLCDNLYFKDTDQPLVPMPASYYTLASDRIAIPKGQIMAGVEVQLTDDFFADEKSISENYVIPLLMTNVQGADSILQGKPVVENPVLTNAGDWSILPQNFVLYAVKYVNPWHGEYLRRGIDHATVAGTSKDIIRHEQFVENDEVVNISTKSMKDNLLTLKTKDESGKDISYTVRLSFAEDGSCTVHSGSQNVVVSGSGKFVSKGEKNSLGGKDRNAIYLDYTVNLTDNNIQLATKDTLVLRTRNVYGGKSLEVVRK
groupLabel: True

Exercise: Quick check: does MVL (Microcystis viridis), Q9RHG4 (protein) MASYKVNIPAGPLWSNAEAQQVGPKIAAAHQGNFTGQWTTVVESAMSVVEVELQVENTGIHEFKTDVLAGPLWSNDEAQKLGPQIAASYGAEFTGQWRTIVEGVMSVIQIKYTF have glycan array binding signal (z-score) greater than or equal to -0.3?
Solution: True
